Reference source for all entries: paper PMC6036174

system: G. mellonella larvae; assay: in vivo toxicity in Galleria mellonella larvae; conditions: rank, normalized with respect to phen content
Recorded In vivo G. mellonella tolerance order in μmol (Normalized against no. of phens) values for a group of compounds are listed next.
Kindly provide the numeric value in th only, without the unit symbol.

Field: example entries. Status: answers known.
{"columns": ["Compound", "Result number"],
 "data": [
  ["O.O.O.O.O.O=C([O-])c1ccc(C(=O)[O-])cc1.[Mn+2].c1cnc2c(c1)ccc1cccnc12.c1cnc2c(c1)ccc1cccnc12 [compound 9, [Mn(tereph)(phen)2]·5H2O]", 5],
  ["c1cnc2c(c1)ccc1cccnc12 [phen, 1,10-phenanthroline, reference compound]", 4]
]}

Qu. Item O.O.O=C([O-])c1ccccc1C(=O)[O-].[Mn+2].c1cnc2c(c1)ccc1cccnc12 [compound 5, [Mn(ph)(phen)(H2O)2]] has what recorded In vivo G. mellonella tolerance order in μmol (Normalized against no. of phens)?
Ans. 6

Qu. Give its In vivo G. mellonella tolerance order in μmol (Normalized against no. of phens) value. Item: O.O.O.O.O.O=C([O-])c1ccccc1C(=O)[O-].[Mn+2].c1cnc2c(c1)ccc1cccnc12.c1cnc2c(c1)ccc1cccnc12 [compound 6, [Mn(ph)(phen)2(H2O)]·4H2O]
Ans. 5

Qu. // In vivo G. mellonella tolerance order in μmol (Normalized against no. of phens) lookup, key: O.O.O.O.O.O.O.O.O.O.O.O.O.O.O.O.O=C([O-])c1cccc(C(=O)[O-])c1.O=C([O-])c1cccc(C(=O)[O-])c1.[Mn+2].[Mn+2].c1cnc2c(c1)ccc1cccnc12.c1cnc2c(c1)ccc1cccnc12.c1cnc2c(c1)ccc1cccnc12.c1cnc2c(c1)ccc1cccnc12.c1cnc2c(c1)ccc1cccnc12 [compound 8, {[Mn(phen)2(H2O)2]}2(isoph)2(phen)·12H2O]
Ans. 5
